system: K562 (chronic myelogenous leukaemia); test: Effect of compounds on tumor cell lines (assay of Latham et al.), K562; format: cell-based; settings: Table 1; K562 cells, examined 96 hours after treatment, 1 μM to 100 μM in DMSO; read-out: K 562 potency (IC50)
Catalogue of IC50 readings, one per entry.

Query :: State the recorded IC50 for this entry: "Cc1ccc(SC(=Cc2c[nH]c3ccccc23)C(=O)c2ccc(Br)cc2)cc1"
Result :: 10 to 25 µM

Query :: What does the record list as IC50 for "Cc1ccc(SC(=Cc2ccc(Cl)cc2)C(=O)c2ccc(Br)cc2)cc1" ?
Result :: 1 to 10 µM

Query :: Name the recorded IC50 for "COc1ccc(C(=O)C(=Cc2ccc(Cl)cc2)Sc2ccc(F)cc2)cc1" .
Result :: > 100 µM

Reference source for all entries: patent US8808702B2
